Known TGI of a selection of compounds
System: ACHN renal
Test: NCI tumour cell line growth inhibition, 48 h
Enter your answer as a number in µM; do not include the unit.

In the examples that follow, each entry is paired with its recorded TGI.
C#C[C@]1(O)CC[C@H]2[C@@H]3CCC4=C/C(=N\OCCN5CCCC5)CC[C@]4(C)[C@H]3CC[C@@]21C: 47.2
Nc1ccc(Oc2ccc(C3(c4ccc(Oc5ccc(N)c(O)c5)cc4)C4CC5C6CC7CC5C3C(C7)C6C4)cc2)cc1O: 3.18

// below: TGI requested for another compound
Lookup: Return reported TGI; argument: CCOn1cc(C2=C(c3c[nH]c4ccccc34)C(=O)NC2=O)c2ccccc21
Found: 16.4
